Test: solvent given as SMILES
Settings: in CCO
endpointLabel: absorption maximum (nm)
Write the value in nm as a bare number.

Data request: Which measured absorption maximum value corresponds to `Cc1cnc(NC(=O)C2=C([O-])c3ccccc3S(=O)(=O)N2C)s1` ?
Data returned: 366

Data request: Entry under review: `CN(C)c1cccc2c1-c1ccccc1C2=O` . Reported absorption maximum?
Data returned: 438

Data request: // returns reported absorption maximum for input `COc1cc2c(cc1/C=C/C1=CC(=C(C#N)C#N)CC(C)(C)C1)c1ccccc1n2C`
Data returned: 479

Data request: Given the entry `COc1ccc(C(=O)/C=C/c2ccc(N(C)C)cc2)cc1OC` , report its measured absorption maximum.
Data returned: 419

Data request: Any idea what absorption maximum was measured for `Cc1c(COC(=O)Cc2c[nH]c3ccccc23)n2c(OCC(=O)Cc3c[nH]c4ccccc34)c(C)c(=O)n2c1=O` ?
Data returned: 382

Data request: Requested read-out: absorption maximum. Entry: `O=c1ccc2cc3c(cc2o1)OCC3`
Data returned: 333

Data request: Item under review: `Cc1cc(=O)oc2cc(O)ccc12` . Reported absorption maximum?
Data returned: 323

Data request: Record request: absorption maximum value, item `O=Cc1ccc(-c2ccc(C3=CCCCC3)s2)s1`
Data returned: 389

Data request: Sample `O=c1c2cc(F)c(N3CCOCC3)cc2sc2cc(N3CCOCC3)c(F)cc12` — what was its absorption maximum?
Data returned: 361

Data request: Endpoint output: absorption maximum of `CC1=[N+]2C(=C(c3c4ccccc4c(-c4ccccc4)c4ccccc34)c3ccc(C)n3[B-]2(F)F)C=C1` . Value?
Data returned: 516

Data request: Field request: absorption maximum | item: `CC(C)(C)c1cc2ccc3cccc4c3c2c(c1)c1nc2c3cc(C(C)(C)C)cc5ccc6cccc(c(=O)n2c41)c6c53`
Data returned: 390

Data request: Would you kindly share the measured absorption maximum for CC(=O)Nc1ccccc1C(=O)OC1CC(C)CCC1C(C)C (stereo unspecified) ?
Data returned: 310

Data request: Fill in the blank: the reported absorption maximum of `CCN(CC)c1ccc2c(-c3ccc(S(=O)(=O)O)cc3S(=O)(=O)[O-])c3ccc(=[N+](CC)CC)cc-3oc2c1` is ____.
Data returned: 556

Data request: // returns reported absorption maximum for input `CCOC(=O)c1ccccc1-c1c2ccc(=[N+](CC)CC)cc-2oc2c1c(=O)oc1cc(N(CC)CC)ccc12`
Data returned: 595

Data request: What absorption maximum value was documented for this molecule, `CCOC(=O)c1cc(C(=O)OCC)c2cc(N)ccc2n1` ?
Data returned: 421

Data request: Record request: absorption maximum value, item COC(=O)C(Cc1ccc2oc(-c3ccc(N(C)C)cc3)nc2c1)NC(=O)OC(C)(C)C (stereo unspecified)
Data returned: 346.6

Data request: Fill in the blank: the reported absorption maximum of `CCC1=C(C)C2=C(c3c4ccccc4c(-c4ccccc4)c4ccccc34)c3c(C)c(CC)c(C)n3[B-](F)(F)[N+]2=C1C` is ____.
Data returned: 529

Data request: Given the entry `CCOc1ccc2c(-c3nc(-c4ccccc4F)no3)cc(=O)oc2c1` , report its measured absorption maximum.
Data returned: 345

Data request: // returns reported absorption maximum for input `CCC1=C(C)C2=Cc3c(I)c(I)c(I)n3[B-](F)(F)[N+]2=C1C`
Data returned: 536

Data request: I have this molecule here, `CCCCCC(=O)c1c2c(c(C(=O)CCCCC)c3c1OC1(CCCC1)O3)OC1(CCCC1)O2` , and I need its recorded absorption maximum.
Data returned: 452

Data request: Please look up its absorption maximum: `CCOC(=O)c1cc(C(=O)OCC)c2cc(N(C)C)ccc2n1`
Data returned: 443
